Molecular target: T1, alpha-s1 casein from Bos taurus
T1 chain: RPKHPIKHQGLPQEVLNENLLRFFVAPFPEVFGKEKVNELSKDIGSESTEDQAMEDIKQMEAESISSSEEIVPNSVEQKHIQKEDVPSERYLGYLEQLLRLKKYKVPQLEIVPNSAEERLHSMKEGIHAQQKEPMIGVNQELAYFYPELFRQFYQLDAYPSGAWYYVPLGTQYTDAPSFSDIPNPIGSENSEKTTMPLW
Reported (αSN1-1)/(αSN1), 6 hours, 11° C. is given for each of the following proteins.

Some solved entries appear below for comparison.
{"columns": ["protein", "quantityMeasured", "assayResult"],
 "data": [
  ["camel chymosin variant #143 (F223V) (protein) GKVAREPLTSYLDSQYFGKIYIGTPPQEFTVVFDTGSSDLWVPSIYCKSNVCKNHHRFDPRKSSTFRNLGKPLSIHYGTGSMEGFLGYDTVTVSNIVDPNQTVGLSTEQPGEVFTYSEFDGILGLAYPSLASEYSVPVFDNMMDRHLVARDLFSVYMDRNGQGSMLTLGAIDPSYYTGSLHWVPVTLQQYWQFTVDSVTINGVAVACVGGCQAILDTGTSVLVGPSSDILKIQMAIGATENRYGEFDVNCGNLRSMPTVVFEINGRDYPLSPSAYTSKDQGFCTSGFQGDNNSELWILGDVFIREYYSVFDRANNRVGLAKAI", "(αSN1-1)/(αSN1), 6 hours, 11° C.", 1.1],
  ["camel chymosin variant #164 (L295Y) (protein) GKVAREPLTSYLDSQYFGKIYIGTPPQEFTVVFDTGSSDLWVPSIYCKSNVCKNHHRFDPRKSSTFRNLGKPLSIHYGTGSMEGFLGYDTVTVSNIVDPNQTVGLSTEQPGEVFTYSEFDGILGLAYPSLASEYSVPVFDNMMDRHLVARDLFSVYMDRNGQGSMLTLGAIDPSYYTGSLHWVPVTLQQYWQFTVDSVTINGVAVACVGGCQAILDTGTSVLFGPSSDILKIQMAIGATENRYGEFDVNCGNLRSMPTVVFEINGRDYPLSPSAYTSKDQGFCTSGFQGDNNSEYWILGDVFIREYYSVFDRANNRVGLAKAI", "(αSN1-1)/(αSN1), 6 hours, 11° C.", 0.6],
  ["camel chymosin variant #140 (F223M) (protein) GKVAREPLTSYLDSQYFGKIYIGTPPQEFTVVFDTGSSDLWVPSIYCKSNVCKNHHRFDPRKSSTFRNLGKPLSIHYGTGSMEGFLGYDTVTVSNIVDPNQTVGLSTEQPGEVFTYSEFDGILGLAYPSLASEYSVPVFDNMMDRHLVARDLFSVYMDRNGQGSMLTLGAIDPSYYTGSLHWVPVTLQQYWQFTVDSVTINGVAVACVGGCQAILDTGTSVLMGPSSDILKIQMAIGATENRYGEFDVNCGNLRSMPTVVFEINGRDYPLSPSAYTSKDQGFCTSGFQGDNNSELWILGDVFIREYYSVFDRANNRVGLAKAI", "(αSN1-1)/(αSN1), 6 hours, 11° C.", 0.7]
]}

Query :: I'd like to know its (αSN1-1)/(αSN1), 6 hours, 11° C.. The protein in question is camel chymosin variant #162 (L295R) (protein) GKVAREPLTSYLDSQYFGKIYIGTPPQEFTVVFDTGSSDLWVPSIYCKSNVCKNHHRFDPRKSSTFRNLGKPLSIHYGTGSMEGFLGYDTVTVSNIVDPNQTVGLSTEQPGEVFTYSEFDGILGLAYPSLASEYSVPVFDNMMDRHLVARDLFSVYMDRNGQGSMLTLGAIDPSYYTGSLHWVPVTLQQYWQFTVDSVTINGVAVACVGGCQAILDTGTSVLFGPSSDILKIQMAIGATENRYGEFDVNCGNLRSMPTVVFEINGRDYPLSPSAYTSKDQGFCTSGFQGDNNSERWILGDVFIREYYSVFDRANNRVGLAKAI
Result :: 0.5
